Ref: patent US12617752B2

Reported Particle-size distribution (PDI) is given for each of the following compounds.
- method notes: Particle size and PDI of lipid nanoparticles by dynamic light scattering
- Type: physicochemical
- protocol conditions: lipid nanoparticles with luciferase mRNA; ionizable lipid/cholesterol/DSPC/DMG-PEG2000 50/38.5/10/1.5 mol%
- Procedure: […] The particle size and particle size dispersity index (PDI) of the prepared lipid nanoparticles were measured using a Zetasizer Pro (purchased from Malvern Instruments Ltd) and a DynaPro NanoStar (purchased from Wyatt) dynamic light scattering instrument. […] This parameter was measured by the method of Quant-it™ RiboGreen RNA Assay (purchased from Invitrogen). […]
# respond with the number and nothing more

[[record]]
compound = "CCCCCCCCCCC(=O)OCCC(C)(C)CCCCN(CCCO)CCCCCCCC(=O)OCC(CCCCCCCC)CCCCCCCC [100b]"
readout_kind = "Particle-size distribution (PDI)"
experimental_value = 0.12

[[record]]
compound = "CCCCCCCCCCCOC(=O)OCCCCN(CCO)CCCCCCC(C)(C)C(=O)OCC(CCCCCCC)CCCCCCC [37a]"
readout_kind = "Particle-size distribution (PDI)"
experimental_value = 0.15

[[record]]
compound = "CCCCCCCCCOC(=O)OCCCCCCN(CCO)CCCCC(C)(C)CCC(=O)OCC(CCCCCCC)CCCCCCC [44a]"
readout_kind = "Particle-size distribution (PDI)"
experimental_value = 0.20


In the following, a different compound is considered.
Noted for CCCCCC#CCCOC(=O)CCCCCCCN(CCO)CCCCCCC(C)(C)C(=O)OC(CCCCCCCC)CCCCCCCC [55a] : its Particle-size distribution (PDI) reads 0.16
